Parameter: Hemolytic activity (% ± SD) at 1 µM. Scope: all listed entries.
system: human red blood cells; assay: Cytotoxicity: hemolysis of human red blood cells; format: cell-based
No end group written: not given here.

Study these solved cases before continuing.
GSLHGFMYKYLKNMVLTLF-NH2 [At01] : 0.00 ± 0.00%
GLYNFIKVLGRTVFGLYKQF-NH2 [At04] : 0.00 ± 0.00%

# context switch: different substance, same Hemolytic activity (% ± SD) at 1 µM
Exercise: Indicate its recorded Hemolytic activity (% ± SD) at 1 µM; the substance in question is GFKDLLKGAAKALVKTVLF-NH2 [Asc-8, Ascaphin-8, reference compound]
Key: 0.00 ± 0.00%

* * *

system: human red blood cells; experiment: Cytotoxicity: hemolysis of human red blood cells; format: cell-based
No end group written: not given here.
Observed property: Hemolytic activity (% ± SD) at 64 µM

Answered examples (2):
FFYNVIKIYGNMAGRISK-NH2 [Cs03] : 4.11 ± 1.22%
GFKLGRKLVKVFKWII-NH2 [Gr01] : 33.9 9 ± 5.46%

Exercise: In one line, give reported Hemolytic activity (% ± SD) at 64 µM of the entry LHRLVKLVAALLRGYASKVDTH [Tc08] .
Key: 28.81 ± 2.6 7%
